Examples of compounds with documented IC50 at 72 h follow.
Assay: MTT cytotoxicity assay, A549
Assay type: cell-based
Details: human, cancer cell line A549, MTT, 0.19–100 μM

{"columns": ["COMPOUND", "IC50 at 72 h"],
 "data": [
  ["C[C@@H]1C[C@@]23CC[C@@H]4[C@](C)(C(=O)O)CCC[C@@]4(C)C2=CC[C@@H]1C3", "> 100 µM"],
  ["C=C1CC23CCC4C(C)(C(=O)O)CCCC4(C)C2=CC(=O)C1C3 (stereo not drawn)", "80.5 µM"]
]}

Next, consider the following compound.
Supply measured IC50 at 72 h of "C=C1C[C@@]23CC[C@@H]4[C@](C)(C(=O)O)CCC[C@@]4(C)C2=CC[C@@H]1C3" in your reply.
> 100 µM

* * *

Test: MTT cytotoxicity assay, LO2
Format: cell-based
Conditions: human, normal cell line LO2, MTT, 0.19–100 μM
Examples of compounds with documented IC50 at 72 h follow.

// worked examples, IC50 at 72 h included
{"columns": ["COMPOUND", "IC50 at 72 h"],
 "data": [
  ["C=C1CC23CCC4C(C)(C(=O)O)CCCC4(C)C2=CC(OC)C1C3 (centres unmarked) [Compound 1]", "> 100 µM"],
  ["C=C1C[C@@]23CC[C@@H]4[C@](C)(C(=O)O)CCC[C@@]4(C)C2=CC[C@@H]1C3 [Compound 6, ent-kaur-9(11),16-dien-19-oic acid]", "> 100 µM"],
  ["CC[C@H](/C=C/[C@@H](C)[C@H]1CC[C@H]2[C@@H]3CC=C4C[C@@H](O)CC[C@]4(C)[C@H]3CC[C@]12C)C(C)C [Compound 14, stigmasta-5,22(E)-dien-3β-ol]", "> 100 µM"]
]}

Supply measured IC50 at 72 h of C=C1CC23CCC4C(C)(C(=O)O)CCCC4(C)C2=CC(=O)C1C3 (centres unmarked) [Compound 18] in your reply.
30 µM

Supply measured IC50 at 72 h of C[C@@]12CCC[C@@](C)(C(=O)O)[C@H]1CC[C@@]13C[C@@H](CC[C@H]12)[C@](C)(O)C3 [Compound 2, (16R)-hydroxy-ent-kauran-19-oic acid] in your reply.
> 100 µM

* * *

Test: MTT cytotoxicity assay, A549
Assay type: cell-based
Conditions: human, cancer cell line A549, MTT, 0.19–100 μM
Examples of molecules with documented IC50 at 72 h follow.

// worked examples, IC50 at 72 h included
{"columns": ["MOLECULE", "IC50 at 72 h"],
 "data": [
  ["C=C1C2CCC3C4(C)CCCC(C)(C(=O)OC)C4CCC3(C2)C1OC(=O)C(C)=CC (stereo not shown)", "> 100 µM"],
  ["C=C1C2CCC3C4(C)CCCC(C)(C(=O)O)C4CCC3(C2)C1OC(=O)C(C)=CC (stereo not shown)", "> 100 µM"],
  ["C=C1C2CCC3(O)C4(C)CCCC(C)(C(=O)O)C4CCC3(C2)C1OC(=O)C(C)=CC (stereo not shown)", "> 100 µM"],
  ["C=C1CC23CCC4C(C)(C(=O)OC)CCCC4(C)C2CCC1C3 (stereo not drawn) [Compound 10, methyl-ent-kaur-16-en-19-oate]", "> 100 µM"],
  ["C=C1C[C@@]23CC[C@@H]4C(C)(C)CCC[C@@]4(C)C2=CC(=O)C1C3", "> 100 µM"],
  ["C=C1CC23CCC4C(C)(C(=O)O)CCCC4(C)C2=CC(OC)C1C3 (stereo not shown)", "> 100 µM"],
  ["C=C1CC23CCC4C(C)(C(=O)O)CCCC4(C)C2CCC1C3 (stereo not shown)", "> 100 µM"],
  ["CC(=O)O[C@H]1C(=O)[C@@]2(C)[C@H]([C@H](OC(=O)c3ccccc3)[C@]3(O)C[C@H](OC(=O)[C@H](O)[C@@H](NC(=O)c4ccccc4)c4ccccc4)C(C)=C1C3(C)C)[C@]1(OC(C)=O)CO[C@@H]1C[C@@H]2O [Paclitaxel, reference compound]", "0.0033 µM"],
  ["CO[C@@]1(C)C[C@@]23CC[C@@H]4[C@](C)(C(=O)O)CCC[C@@]4(C)C2=CC[C@@H]1C3", "> 100 µM"],
  ["CC[C@H](/C=C/[C@@H](C)[C@H]1CC[C@H]2[C@@H]3CC=C4C[C@@H](O)CC[C@]4(C)[C@H]3CC[C@]12C)C(C)C [Compound 14, stigmasta-5,22(E)-dien-3β-ol]", "> 100 µM"]
]}

Supply measured IC50 at 72 h of C[C@@]12CCC[C@@](C)(C(=O)O)[C@H]1CC[C@@]13C[C@@H](CC[C@H]12)[C@](C)(O)C3 [Compound 2, (16R)-hydroxy-ent-kauran-19-oic acid] in your reply.
> 100 µM

Supply measured IC50 at 72 h of CC=C(C)C(=O)OC1C23CCC4C(C)(C(=O)O)CCCC4(C)C2CCC(C3)C12CO2 (stereo not shown) in your reply.
30.7 µM

Supply measured IC50 at 72 h of C=C1C2CCC3(O)C4(C)CCCC(C)(C(=O)OC)C4CCC3(C2)C1OC(=O)C(C)=CC (stereo not shown) in your reply.
> 100 µM
